Tested on: T-47D breast
assay-overview: NCI-60 one-dose screen, 48 h (100 = growth as untreated, 0 = no growth, -100 = all killed)
details: 10 µM unless noted
About 83,000 compounds went through this panel and 20% of them were active in at least one assay; those are over-represented in the sample as a whole.
growth values for the compounds below.
Write the answer as a number in %, unit excluded.

Past entries and their recorded results:
smiles-data	metric	obs-value
N/C(=N\N=C\c1ccc(-c2ccccc2)cc1)N[N+](=O)[O-]	growth	36.1
COC(=O)[C@@]1(C)CC[C@]2(C)CC[C@]3(C)C4=CC(=O)c5c(cc(O)c(O)c5C)[C@]4(C)CC[C@@]3(C)[C@@H]2C1	growth	54.1
[Cl][Hg][c]1cc(Br)cc(Br)c1	growth	27.5
COC(=O)[C@@H](C)C[C@H](Cc1cn(C)c2ccccc12)NC(=O)c1csc([C@@H](C[C@H](C(C)C)N(C)C(=O)[C@@H](NC(=O)[C@H]2CCCCN2C)C(C)C)OC(C)=O)n1	growth	67.7

The reported value for CC[C@H](C)[C@@H]([C@@H](CC(=O)N1CCC[C@H]1[C@H](OC)[C@@H](C)C(=O)N[C@H](C)[C@@H](O)c1ccccc1)OC)N(C)C(=O)[C@@H](NC(=O)[C@@H](NC)C(C)C)C(C)C in terms of growth is 87.3

The reported value for Fc1ccc(N2COOC3(OOC2)C2CC4CC(C2)CC3C4)cc1 in terms of growth is 75.7

The reported value for CC[C@H](C)[C@H](NC(=O)[C@H]1CCCCN1C)C(=O)N(C)[C@H](C[C@@H](OC(C)=O)c1nc(C(=O)N[C@@H](Cc2ccccc2)C[C@H](C)C(=O)OC)cs1)C(C)C in terms of growth is 81

The reported value for O=C(Nc1ccc(Br)cc1)c1cc(Br)cc(Br)c1O in terms of growth is -2.63
